Where these numbers come from: PubChem BioAssay AID463199

Test system: S. cerevisiae Burl-1 ts mutant growth, BacTiter-Glo, 38.5C 24 h
Experiment: restored growth of temperature-sensitive Burl-1 yeast – whole organism, S. cerevisiae, Burl-1 ts mutant, luminescence, counter-screen for SUMOylation pathway inhibitor project, dose response (AID 463199)
Calls of active or inactive are those of the source.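 Rule for the calls: active = AC50, the dose giving half-maximal effect, exceeds a fixed cutoff for a compound that rescues yeast growth under heat; inactive = the rest, inconclusive results apart.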
measuredQuantity: AC50

Please go through the list and note AC50 for each compound.
1. Cc1ccc(C(=O)NCCCNC(=O)c2ccc(C)nc2)cc1
2. CCOP(=O)(OCC)c1cc(CC)ccc1O

1. > 42 µM (inactive)
2. > 42 µM (inactive)

Please go through the list and note AC50 for each compound.
1. COC(=O)c1ccccc1NC(=O)CSc1nnnn1CC(=O)O
2. Cc1cccn2c(=O)c3cc(C(=O)NCc4cccnc4)c(=N)n(C(C)C)c3nc12
3. On1c(-c2ccccc2Cl)nc2ncccc21
4. O=C1NC2(CCCCC2)NN1c1ccccc1
5. Cc1cc2c(C)ccc(C)c2nc1SCC(=O)c1cccs1

["> 42 µM (inactive)", "> 42 µM (inactive)", "> 42 µM (inactive)", "> 42 µM (inactive)", "> 42 µM (inactive)"]

----------
System: S. cerevisiae Burl-1 ts mutant growth, BacTiter-Glo, 38.5C 24 h
Assay: restored growth of temperature-sensitive Burl-1 yeast – whole organism, S. cerevisiae, Burl-1 ts mutant, luminescence, counter-screen for SUMOylation pathway inhibitor project, dose response (AID 463199)
Activity calls are given as the source filed them.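 How the source made its calls: active means AC50, the dose giving half-maximal effect, exceeds a fixed cutoff for a compound that rescues yeast growth under heat; inactive means the rest, inconclusive results apart.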
Kindly state AC50 for each of the entries shown.

Known results for compounds:
C=CCNC(=O)NC(=O)COC(=O)CCCSc1nc2ccccc2[nH]1 : > 42 µM (inactive)
O=C(NCC1CCCO1)c1nn2c(C(F)(F)F)cc(-c3cc(Br)cs3)nc2c1Br (configuration not stated) : > 42 µM (inactive)
CCC(Cc1ccccc1)NC(=O)C1CCN(c2nn3c(=O)cc(C)nc3s2)CC1 (configuration not stated) : > 42 µM (inactive)
COc1ccc(N(CC(=O)NCc2ccc(C)cc2)S(=O)(=O)c2c(C)nn(C)c2C)cc1 : > 42 µM (inactive)
CC(C)Cc1nc(N2CCOCC2)c(C#N)c2c1CCC2 : > 42 µM (inactive)
Cn1c(SCC(=O)N/N=C/c2ccc([N+](=O)[O-])s2)nnc1-c1ccc(Cl)cc1 : > 42 µM (inactive)
COc1cccc(-n2c(SCC(=O)NC3CCCCC3)nc3n[nH]c(C)c3c2=N)c1 : > 42 µM (inactive)
COc1cc(CNCc2ccc3c(c2)OCO3)c([N+](=O)[O-])cc1OC : > 42 µM (inactive)

Please go through the list and note AC50 for each compound.
1. COc1ccc(Cl)cc1C(=O)NCCc1ccc(S(=O)(=O)NC(=O)NC2CCCCC2)cc1
2. COc1ccc(C2CC3(CC(C)(C)NC(=S)N3)Oc3cc(O)cc(C)c32)cc1 (configuration not stated)
3. O=C(Nc1ccc([N+](=O)[O-])cn1)C1CC1
4. CC(=O)NCCc1nc2cc(NC(=O)c3ccc(F)cc3)ccc2n1C

1. > 42 µM (inactive)
2. > 42 µM (inactive)
3. > 42 µM (inactive)
4. > 42 µM (inactive)

Please go through the list and note AC50 for each compound.
1. CCN1CSC(=S)N(Cc2ccc(OC)cc2)C1
2. Cc1ccc(-c2nc(-c3cccnc3)sc2CC(=O)O)cc1
3. Cc1ccc(N/N=C2/CCCNC2=O)cc1
4. CCCCNS(=O)(=O)c1ccc2c(c1)oc(=O)n2CC(=O)OCC
5. CCOC(=O)c1[nH]c2ccc(F)cc2c1NC(=O)CCN1CCOCC1
6. COc1ccccc1-c1sc2ccccc2c1-c1ccc2c(c1)OCO2

1: 7.78 µM; 2: > 42 µM (inactive); 3: > 42 µM (inactive); 4: > 42 µM (inactive); 5: > 42 µM (inactive); 6: > 42 µM (inactive)
